# SUBJECT OF TEST: Man(a1-2)Man(a1-3)[Man(a1-2)Man(a1-6)]Man
# TEST PROTOCOL: glycan array binding signal (z-score within array); higher = stronger binding
# CONDITIONS: glycan notation: IUPAC condensed, linker removed
About 410 targets per protein were measured; listed, in parts, are those with the strongest signals and a random draw of the rest.
Recorded glycan array binding signal (z-score), one value per entry.
Respond with the number and no other words.

BINDER	glycan array binding signal (z-score)
Banana lectin (Musa acuminata) (protein) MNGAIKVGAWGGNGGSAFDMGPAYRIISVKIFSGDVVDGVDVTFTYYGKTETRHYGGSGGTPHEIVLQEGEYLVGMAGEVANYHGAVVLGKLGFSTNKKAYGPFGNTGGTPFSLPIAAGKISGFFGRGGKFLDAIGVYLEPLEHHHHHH	4.51

-- ask Give glycan array binding signal (z-score) for the following binder: Glycodelin A (Homo sapiens), P09466 (protein) MLCLLLTLGVALVCGVPAMDIPQTKQDLELPKLAGTWHSMAMATNNISLMATLKAPLRVHITSLLPTPEDNLEIVLHRWENNSCVEKKVLGEKTENPKKFKINYTVANEATLLDTDYDNFLFLCLQDTTTPIQSMMCQYLARVLVEDDEIMQGFIRAFRPLPRHLWYLLDLKQMEEPCRF
-- reply -0.43
